assay: Volume of distribution in Sprague-Dawley rats at 1.4 mg/kg, iv; assay type: ADME, organism-based; details: rat, in vivo
VALUE_KIND: Vd (L/kg)
Please respond with the number in L/kg and leave the unit unwritten.

**Q:** Which Vd is reported for this compound? "NCCCC[C@H](N)C(=O)Oc1cc([N+](=O)[O-])ccc1-c1cc(=O)[nH]c2c(-c3ccc(Cl)cc3)c(Cc3ccccc3)nn12"
**A:** 0.383

* * *

experiment: Solubility in water; assay type: physicochemical
Exercise: for every item that follows, state its recorded solubility.

**Q:** Which solubility is reported for this molecule? "Cc1ccc(-c2cc(=O)[nH]c3c(-c4ccc(Cl)cc4)c(Cc4ccccc4)nn23)c(OP(=O)(O)O)c1"
**A:** > 50 µM

**Q:** Which solubility is reported for this molecule? "Cc1ccc(-c2c[nH]c3c(-c4ccc(Cl)cc4)c(Cc4ccccc4)nn3c2=O)c(OP(=O)([O-])[O-])c1.[Na+].[Na+]"
**A:** > 50 µM

**Q:** Which solubility is reported for this molecule? "O=c1c(-c2ccc(F)cc2OP(=O)([O-])[O-])c[nH]c2c(-c3ccc(Cl)cc3)c(Cc3ccccc3)nn12.[Na+].[Na+]"
**A:** > 50 µM

**Q:** Which solubility is reported for this molecule? "Cc1ccc(-c2cc(=O)[nH]c3c(-c4ccc(Cl)cc4)c(Cc4ccccc4)nn23)c(OP(=O)([O-])[O-])c1.[Na+].[Na+]"
**A:** > 50 µM

**Q:** Which solubility is reported for this molecule? "Cc1ccc(-c2c[nH]c3c(-c4ccc(Cl)cc4)c(Cc4ccccc4)nn3c2=O)c(O)c1"
**A:** < 1 µM

* * *

assay: Terminal half-life in Sprague-Dawley rats at 1.4 mg/kg, iv; format: ADME, organism-based; details: rat, in vivo, read-out: beta t1/2 (converted)
VALUE_KIND: half-life (h)
Please respond with the number in h and leave the unit unwritten.

**Q:** Which half-life is reported for this compound? "NCCCC[C@H](N)C(=O)Oc1cc([N+](=O)[O-])ccc1-c1cc(=O)[nH]c2c(-c3ccc(Cl)cc3)c(Cc3ccccc3)nn12"
**A:** 10.9

Just for reference, ChEMBL document CHEMBL5052829 is where these values come from.
